- assayed target: T1, secretory phospholipase A2 (sPLA2) (Homo sapiens, UniProt P14555 P14555:21-144)
- T1 sequence: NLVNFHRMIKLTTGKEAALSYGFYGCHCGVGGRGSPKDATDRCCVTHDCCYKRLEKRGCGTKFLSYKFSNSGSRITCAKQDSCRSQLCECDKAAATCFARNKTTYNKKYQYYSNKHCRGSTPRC
- experimental protocol: filter; biphasic, Kd2 720 nM, mole fraction 0.40; TBSC, 37 C
- details: tags: supplied by Eli Lilly
measurement kind: Kd (nM)
Write down the numeric answer in nM and omit the unit.

Output measured Kd for this item: 87.3 (ssRNA) RNA: GGGAGCUCAGAAUAAACGCUCAAGCUCUGGGAUGAUGCCCACUGUCCAGCAUCUUCGACAUG 0.8
